Field: EC50. Provide a value for each of the compounds that follow.
Molecular target: human dopamine D3 receptor (Homo sapiens)
Construct: host or cells: CHO
Sequence (P35462 whole entry): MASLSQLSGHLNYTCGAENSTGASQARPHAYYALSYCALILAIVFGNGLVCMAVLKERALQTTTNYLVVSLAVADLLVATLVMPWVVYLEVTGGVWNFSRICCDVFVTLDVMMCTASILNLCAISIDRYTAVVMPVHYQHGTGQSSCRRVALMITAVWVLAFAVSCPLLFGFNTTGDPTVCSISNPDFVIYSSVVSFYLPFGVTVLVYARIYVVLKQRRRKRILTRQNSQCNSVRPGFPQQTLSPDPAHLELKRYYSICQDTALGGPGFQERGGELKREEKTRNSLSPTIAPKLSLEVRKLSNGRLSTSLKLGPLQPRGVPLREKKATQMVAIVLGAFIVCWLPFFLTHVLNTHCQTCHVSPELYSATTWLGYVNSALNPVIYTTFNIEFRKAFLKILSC
Assay: Human D3 Assay: binding of [3H]-Spiperone, CHO cell membranes
Details: inhibition of ligand binding; molar concentration; read-out: Approximate EC50 (converted)

// query Given the entry CC1=C2[C@H](/C=C(\C)C=O)CC[C@@H](C)[C@H]2CC1 [VM-022-033-F1, Valerenal] , what EC50 was observed with human dopamine D3 receptor (Homo sapiens)?
// result 47 µM

// query Given the entry CC1=C2[C@@H]([C@H](C)CC[C@H]2/C=C(\C)C(=O)O)[C@H](O)C1 [KL-015-025-F2, Hydroxyvalerenic Acid] , what EC50 was observed with human dopamine D3 receptor (Homo sapiens)?
// result > 800 µM

// query Given the entry CC1=C2[C@H](/C=C(\C)C(=O)O)CC[C@@H](C)[C@H]2CC1 [KL-015-039-F1, Valerenic Acid] , what EC50 was observed with human dopamine D3 receptor (Homo sapiens)?
// result 192 µM

// query Given the entry C=C1CCC2C(C3C1CCC3(C)O)C2(C)C (stereo not shown) [VM-022-034-F1, 10(14)-Aromadendren-4-ol] , what EC50 was observed with human dopamine D3 receptor (Homo sapiens)?
// result 110 µM

// query Given the entry CC1=C2C(/C=C(\C)CO)CCC(C)C2CC1 (stereo not shown) [VM-022-034-F4, Valerenol] , what EC50 was observed with human dopamine D3 receptor (Homo sapiens)?
// result 48 µM

// query Given the entry C=C1CCC(C(C)C)=CC2C1CCC2(C)O (stereo not shown) [VM-022-034-F2, 6,10(14)-Guaiadien-4-ol] , what EC50 was observed with human dopamine D3 receptor (Homo sapiens)?
// result 110 µM

// query Given the entry CC(=O)O[C@@H]1CC(C)=C2[C@H]1[C@H](C)CC[C@H]2/C=C(\C)C(=O)O [KL-015-040-F1, Acetoxyvalerenic Acid] , what EC50 was observed with human dopamine D3 receptor (Homo sapiens)?
// result > 685 µM
